Target: taxol-stabilized microtubules polymerized from bovine brain tubulin dimers (bovine) (UniProt Q6B856)
Assay: co-sedimentation; 100 nM ISB (WT, MTBM or Δ20) with various concentrations of taxol-stabilized microtubules; BRB80, 1 mM DTT, 50 mM NaCl, 20 uM paclitaxel; 15 min at room temperature; 50% glycerol cushion, 279,000 x g; blot with anti-Borealin; apparent Kd from a one-site specific binding fit of three experiments
Value Kind: Kd (µM)
One number for each entry, in µM.

Assign Kd to the following record: ISB^MTBM: INCENP^1-58-Survivin-Borealin(R17E, R19E, K20E) complex (from UniProt Q9NQS7 1-58; O15392 1-142; Q53HL2 1-280)
4.2
